Target: Thyroid hormone receptor beta (Homo sapiens, UniProt P10828)
Sequence (P10828 whole entry): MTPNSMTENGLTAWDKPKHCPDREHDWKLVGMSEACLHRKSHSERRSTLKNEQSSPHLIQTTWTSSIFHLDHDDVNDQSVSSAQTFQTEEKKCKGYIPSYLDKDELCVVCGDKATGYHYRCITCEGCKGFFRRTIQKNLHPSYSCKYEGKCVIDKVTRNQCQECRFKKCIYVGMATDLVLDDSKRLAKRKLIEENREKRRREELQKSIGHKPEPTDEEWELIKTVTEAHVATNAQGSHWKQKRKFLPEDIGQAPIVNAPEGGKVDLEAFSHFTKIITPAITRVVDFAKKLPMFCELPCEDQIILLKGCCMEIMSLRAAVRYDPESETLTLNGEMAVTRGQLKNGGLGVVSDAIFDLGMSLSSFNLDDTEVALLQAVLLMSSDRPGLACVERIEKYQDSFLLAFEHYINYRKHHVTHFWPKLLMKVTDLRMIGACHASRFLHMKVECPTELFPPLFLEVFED
Assay: Displacement of labeled SRC2-2 from human TRbeta expressed in BL21 (DE3) cells FP assay
# maps each entry to its IC50
quantity: IC50 (µM)

                            smiles_input  inequality_operator  meas_value
 0         CCCCCCc1ccc(NC(=O)C=C(C)C)cc1                    >         100
 1   CCCCCCc1ccc(NC(=O)/C=C/c2ccccc2)cc1                    >         100
 2               CCCCCCc1ccc(C(=O)CC)cc1                    >         100
 3       C/C=C(\C)C(=O)c1ccc(CCCCCCC)cc1                    >         100
 4               CCCCCCc1ccc(C(=O)CF)cc1                    >         100
 5   CCCCCCCc1ccc(C(=O)/C=C/c2ccccc2)cc1                    >         100
 6   C=CC(=O)[C@H]1CC[C@H](CC(C)(C)C)CC1                    =        69.1
 7  CCCCCCc1ccc(C(=O)CCN(C(C)C)C(C)C)cc1                    =           2
 8    CCCCCCc1ccc(C(=O)CCN(CCCC)CCCC)cc1                    =         4.2
 9            C=CC(=O)c1ccc(CCCCCCCC)cc1                    =        11.4
10                C=CC(=O)c1ccc(CCCC)cc1                    =          66
11         CCCCCCCc1ccc(C(=O)C=C(C)C)cc1                    >         100
12          C/C=C/C(=O)Nc1ccc(CCCCCC)cc1                    >         100
13             C#CC(=O)Nc1ccc(CCCCCC)cc1                    =        35.1
14        CCCCCCc1ccc(NC(=O)CCC(=O)O)cc1                    >         100
15            CCCCCCc1ccc(C(=O)CCCBr)cc1                    >         100
16             C=CC(=O)c1ccc(CCCCCCC)cc1                    =        10.5
17           CCCCCCc1ccc(C(=O)CCNCCC)cc1                    =        15.2
18    C=C(CC(=O)Nc1ccc(CCCCCC)cc1)C(=O)O                    >         100
19   CCCCCCc1ccc(C(=O)CCN(C)Cc2ccco2)cc1                    =        12.1
20      CCCCCCc1ccc(C(=O)/C=C\C(=O)O)cc1                    =        17.7

Source: ChEMBL document CHEMBL1137577
